Experiment: Half life in Sprague-Dawley rat at 1 mg/kg, iv
Assay type: ADME, organism-based
Parameters: dose 1 mg/kg, route intravenous
Conditions: in vivo

[
  {
    "Compound String": "CCC(CC)c1nn(CCO)c2c1N=C(c1ccc(-n3ccnc3C)cc1)CNC2=O",
    "half-life": "31.8 min"
  },
  {
    "Compound String": "COc1ncc(-c2cc(C3=Nc4c(C(C)(C)C)nn(CCO)c4C(=O)NC3)ccc2OC)cn1",
    "half-life": "90 min"
  },
  {
    "Compound String": "COc1ccc(C2=Nc3c(C(C)(C)C)nn(CCCO)c3C(=O)NC2)cc1-c1cnn(C)c1",
    "half-life": "43.8 min"
  }
]

----------
Assay: AUC in Sprague-Dawley rat at 10 mg/kg, po
Type: ADME, organism-based
Design: dose 10 mg/kg, route oral
Conditions: plasma
Outcome Measure: AUC (ng·h/mL)

[
  {
    "Compound String": "COc1ccc(C2=Nc3c(C(C)(C)C)nn(CCCO)c3C(=O)NC2)cc1-c1cnn(C)c1",
    "Units Text": "ng·h/mL",
    "Readout Number": 1160
  },
  {
    "Compound String": "COc1ncc(-c2cc(C3=Nc4c(C(C)(C)C)nn(CCO)c4C(=O)NC3)ccc2OC)cn1",
    "Units Text": "ng·h/mL",
    "Readout Number": 4530
  },
  {
    "Compound String": "CCC(CC)c1nn(CCO)c2c1N=C(c1ccc(-n3ccnc3C)cc1)CNC2=O",
    "Units Text": "ng·h/mL",
    "Readout Number": 1660
  }
]

----------
Assay: Volume of distribution at steady state in Sprague-Dawley rat at 1 mg/kg, iv and 10 mg/kg, po
Assay type: ADME, organism-based
Conditions: in vivo, read-out: Vdss

[
  {
    "Compound String": "COc1ccc(C2=Nc3c(C(C)(C)C)nn(CCCO)c3C(=O)NC2)cc1-c1cnn(C)c1",
    "Units Text": "L/kg",
    "Vd": 2
  },
  {
    "Compound String": "COc1ncc(-c2cc(C3=Nc4c(C(C)(C)C)nn(CCO)c4C(=O)NC3)ccc2OC)cn1",
    "Units Text": "L/kg",
    "Vd": 3.02
  },
  {
    "Compound String": "CCC(CC)c1nn(CCO)c2c1N=C(c1ccc(-n3ccnc3C)cc1)CNC2=O",
    "Units Text": "L/kg",
    "Vd": 1.1
  }
]

----------
Target: cGMP-dependent 3',5'-cyclic phosphodiesterase (Homo sapiens, UniProt O00408)
Sequence (O00408 whole entry): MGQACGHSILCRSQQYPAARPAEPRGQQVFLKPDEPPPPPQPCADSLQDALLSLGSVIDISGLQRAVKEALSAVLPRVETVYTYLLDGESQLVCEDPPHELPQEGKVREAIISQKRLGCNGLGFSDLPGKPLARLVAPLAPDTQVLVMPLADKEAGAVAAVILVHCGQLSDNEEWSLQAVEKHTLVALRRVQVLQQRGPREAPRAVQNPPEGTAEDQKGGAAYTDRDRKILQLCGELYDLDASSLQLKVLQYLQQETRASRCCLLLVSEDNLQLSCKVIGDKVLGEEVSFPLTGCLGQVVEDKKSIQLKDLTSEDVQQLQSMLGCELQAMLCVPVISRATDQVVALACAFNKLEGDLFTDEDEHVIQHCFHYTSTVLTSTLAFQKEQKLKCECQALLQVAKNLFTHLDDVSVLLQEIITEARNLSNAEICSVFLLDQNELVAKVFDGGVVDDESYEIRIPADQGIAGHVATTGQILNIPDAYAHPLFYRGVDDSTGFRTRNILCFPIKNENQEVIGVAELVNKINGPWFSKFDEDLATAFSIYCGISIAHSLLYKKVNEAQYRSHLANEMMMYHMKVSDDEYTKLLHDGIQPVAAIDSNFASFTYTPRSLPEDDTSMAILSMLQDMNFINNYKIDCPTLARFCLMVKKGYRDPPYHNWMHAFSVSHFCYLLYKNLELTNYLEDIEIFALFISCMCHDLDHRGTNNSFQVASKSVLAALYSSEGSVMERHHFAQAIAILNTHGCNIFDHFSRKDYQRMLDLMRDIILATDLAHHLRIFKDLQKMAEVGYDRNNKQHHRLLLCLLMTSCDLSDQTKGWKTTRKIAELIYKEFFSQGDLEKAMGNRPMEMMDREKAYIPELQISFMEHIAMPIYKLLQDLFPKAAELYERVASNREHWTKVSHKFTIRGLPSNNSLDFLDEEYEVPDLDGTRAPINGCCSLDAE
Hi! Could you tag entries with IC50 below 200 nM as y, and those at or above as n? Much appreciated.

[
  {
    "Compound String": "COc1ccc(C2=Nc3c(C(C)(C)C)nn(CCCO)c3C(=O)NC2)cc1-c1ccc(F)cc1F",
    "Assigned Category": "n"
  },
  {
    "Compound String": "COc1ccc(OC)c(-c2cc(C3=Nc4c(C(C)(C)C)nn(CCCO)c4C(=O)NC3)ccc2OC)c1",
    "Assigned Category": "y"
  },
  {
    "Compound String": "COc1ccccc1-c1cc(C2=Nc3c(C(C)(C)C)nn(CCCO)c3C(=O)NC2)ccc1OC",
    "Assigned Category": "y"
  },
  {
    "Compound String": "COc1ccc(C2=Nc3c(C(C)(C)C)nn(CCCO)c3C(=O)NC2)cc1-c1ccccc1SC",
    "Assigned Category": "n"
  },
  {
    "Compound String": "COc1ncc(-c2cc(C3=Nc4c(C(C)(C)C)nn(CCCO)c4C(=O)NC3)ccc2OC)c(OC)n1",
    "Assigned Category": "y"
  }
]

----------
Assay: Half life in human liver microsomes
Assay type: ADME, Microsome
The entries below are paired with their reported half-life.

[
  {
    "Compound String": "COc1ncc(-c2cc(C3=Nc4c(C(C)(C)C)nn(CCO)c4C(=O)NC3)ccc2OC)cn1",
    "half-life [h]": 0.567
  },
  {
    "Compound String": "COc1ccc(C2=Nc3c(C(C)(C)C)nn(CCO)c3C(=O)NC2)cc1-c1cnc(N(C)C)cc1C",
    "half-life [h]": 1.23
  },
  {
    "Compound String": "COc1ccc(-c2cc(C3=Nc4c(C(C)(C)C)nn(CCCO)c4C(=O)NC3)ccc2OC)c(OC)c1",
    "half-life [h]": 2
  },
  {
    "Compound String": "COc1ccc(C2=Nc3c(C(C)(C)C)nn(CCCO)c3C(=O)NC2)cc1-c1cnn(C)c1",
    "half-life [h]": 2
  }
]

----------
Test: Half life in human liver microsomes
Assay type: ADME, Microsome
The entries below are paired with their reported half-life.

[
  {
    "Compound String": "COc1ncc(-c2cc(C3=Nc4c(C(C)(C)C)nn(CCO)c4C(=O)NC3)ccc2OC)c(OC)n1",
    "Units Text": "min",
    "half-life": 36
  },
  {
    "Compound String": "COc1ccc(C2=Nc3c(C(C)(C)C)nn(CCO)c3C(=O)NC2)cc1-c1cnc(N2CCCC2)nc1",
    "Units Text": "min",
    "half-life": 33
  },
  {
    "Compound String": "COc1ccc(C2=Nc3c(C(C)(C)C)nn(CCCO)c3C(=O)NC2)cc1-c1ccc(F)cc1F",
    "Units Text": "min",
    "half-life": 120
  },
  {
    "Compound String": "COc1ccc(-c2cc(C3=Nc4c(C(C)(C)C)nn(CCO)c4C(=O)NC3)ccc2OC)c(OC)n1",
    "Units Text": "min",
    "half-life": 57
  },
  {
    "Compound String": "COc1ccc(-c2cc(C3=Nc4c(C(C)(C)C)nn(CCO)c4C(=O)NC3)ccc2OC)c(OC)c1",
    "Units Text": "min",
    "half-life": 43
  },
  {
    "Compound String": "COc1ccccc1-c1cc(C2=Nc3c(C(C)(C)C)nn(CCCO)c3C(=O)NC2)ccc1OC",
    "Units Text": "min",
    "half-life": 82
  },
  {
    "Compound String": "COc1ccc(C2=Nc3c(C(C)(C)C)nn(CCCO)c3C(=O)NC2)cc1-c1ccccc1SC",
    "Units Text": "min",
    "half-life": 51
  },
  {
    "Compound String": "COc1ncc(-c2cc(C3=Nc4c(C(C)(C)C)nn(CCCO)c4C(=O)NC3)ccc2OC)c(OC)n1",
    "Units Text": "min",
    "half-life": 120
  },
  {
    "Compound String": "COc1ccc(C2=Nc3c(C(C)(C)C)nn(CCO)c3C(=O)NC2)cc1-c1cnc(N2CCOCC2)nc1",
    "Units Text": "min",
    "half-life": 39
  },
  {
    "Compound String": "COc1ccc(C2=Nc3c(C(C)(C)C)nn(CCO)c3C(=O)NC2)cc1-c1cnc(N2CCCCC2)nc1",
    "Units Text": "min",
    "half-life": 18
  },
  {
    "Compound String": "COc1ccc(-c2cc(C3=Nc4c(C(C)(C)C)nn(CCCO)c4C(=O)NC3)ccc2OC)cn1",
    "Units Text": "min",
    "half-life": 120
  },
  {
    "Compound String": "COc1ccc(C2=Nc3c(C(C)(C)C)nn(CCCO)c3C(=O)NC2)cc1-c1ccccc1F",
    "Units Text": "min",
    "half-life": 48
  },
  {
    "Compound String": "COc1ccc(C2=Nc3c(C(C)(C)C)nn(CCCO)c3C(=O)NC2)cc1-c1ccc(C(=O)O)cc1",
    "Units Text": "min",
    "half-life": 120
  },
  {
    "Compound String": "COc1ccc(C2=Nc3c(C(C)(C)C)nn(CCO)c3C(=O)NC2)cc1-c1cnc(N(C)C)nc1",
    "Units Text": "min",
    "half-life": 36
  },
  {
    "Compound String": "COc1ccc(OC)c(-c2cc(C3=Nc4c(C(C)(C)C)nn(CCCO)c4C(=O)NC3)ccc2OC)c1",
    "Units Text": "min",
    "half-life": 61
  },
  {
    "Compound String": "COc1ccc(C2=Nc3c(C(C)(C)C)nn(CCCO)c3C(=O)NC2)cc1-c1cnc(N(C)C)cc1C",
    "Units Text": "min",
    "half-life": 42
  },
  {
    "Compound String": "COc1ccc(C2=Nc3c(C(C)(C)C)nn(CCO)c3C(=O)NC2)cc1-c1cnn(C)c1",
    "Units Text": "min",
    "half-life": 59
  },
  {
    "Compound String": "CCC(C)(C)c1nn(CCO)c2c1N=C(c1ccc(-n3ccnc3C)cc1)CNC2=O",
    "Units Text": "min",
    "half-life": 6.9
  }
]
